System: σ^E-mediated transcription
method.notes: σ^E-mediated transcription inhibition, E. coli reporter assay
Type: cell-based
test.settings: Escherichia coli
assay.metric: IC50 (µg/mL)
Numeric only. Scale: µg/mL

# annotated cases, reported IC50 shown
>>> df
                               entry_smiles  assay_metric  measured_number
0          Cc1cc(F)ccc1-c1cccc(Nc2ccccc2)n1          IC50               11
1  O=C(Nc1cccc(-c2ccccc2)c1)c1cccc(C(F)(F)F)c1          IC50              4.3
2  Cc1cc(F)ccc1-c1cccc(-c2cn(-c3ccncc3)nn2)c1          IC50              6.6

Okay, now this molecule:
query: Fill blank: measured IC50 of the molecule c1ccc(-c2cccc(-c3cn(-c4ccncc4)nn3)c2)cc1 is ____.
result: 2.6

###

System: HeLa (cervical cancer cells)
method.notes: Cytotoxicity, propidium iodide fluorescence, HeLa cells
Assay type: cell-based, Human
Set-up: key: % cytotoxicity relative to positive control (100% cell lysis)
test.settings: 20× MIC, 24 h, relative to positive control (100% cell lysis)
assay.metric: Cytotoxicity at 20× MIC HeLa

# annotated cases, reported Cytotoxicity at 20× MIC HeLa shown
>>> print(df.to_string())
                               entry_smiles            measurement_target                  assay_metric  result
0  O=C(Nc1cccc(-c2ccccc2)c1)c1cccc(C(F)(F)F)c1  HeLa (cervical cancer cells)  Cytotoxicity at 20× MIC HeLa       7
1  Cc1cc(F)ccc1-c1cccc(-c2cn(-c3ccncc3)nn2)c1  HeLa (cervical cancer cells)  Cytotoxicity at 20× MIC HeLa      14
2  c1ccc(-c2cccc(-c3cn(-c4ccncc4)nn3)c2)cc1  HeLa (cervical cancer cells)  Cytotoxicity at 20× MIC HeLa      14
3          Cc1cc(F)ccc1-c1cccc(Nc2ccccc2)n1  HeLa (cervical cancer cells)  Cytotoxicity at 20× MIC HeLa      11

query: Fill blank: measured Cytotoxicity at 20× MIC HeLa of the compound Cc1cc(F)ccc1-c1cccc(NC(=O)c2ccccc2)c1 is ____.
result: 10

query: Please give the result for Cc1cc(F)ccc1-c1cccc(NC(=O)c2cccc(Cl)c2)n1 too.
result: 8

###

Each item that follows carries a reported Cytotoxicity at 10× MIC HeLa.
Tested on: HeLa (cervical cancer cells)
method.notes: Cytotoxicity, propidium iodide fluorescence, HeLa cells
Assay type: cell-based, Human
Set-up: key: % cytotoxicity relative to positive control (100% cell lysis)
test.settings: 10× MIC, 24 h, relative to positive control (100% cell lysis)
Write no unit; give the number alone.

# annotated cases, reported Cytotoxicity at 10× MIC HeLa shown
In [3]: df
Out[3]:
                                   compound                  assay_metric  measured_number
0  Cc1cc(F)ccc1-c1cccc(NC(=O)c2ccccc2)c1 [Compound 39731]  Cytotoxicity at 10× MIC HeLa                8
1  Cc1cc(F)ccc1-c1cccc(Nc2ccccc2)n1 [Compound 39704]  Cytotoxicity at 10× MIC HeLa               11

query: Fill blank: measured Cytotoxicity at 10× MIC HeLa of the compound c1ccc(-c2cccc(-c3cn(-c4ccncc4)nn3)c2)cc1 [Compound 39748] is ____.
result: 14

query: Please give the result for O=C(Nc1cccc(-c2ccccc2)c1)c1cccc(C(F)(F)F)c1 [Compound 39751] too.
result: 9

query: Please give the result for Cc1cc(F)ccc1-c1cccc(-c2cn(-c3ccncc3)nn2)c1 [Compound 39724] too.
result: 11

query: Please give the result for Cc1cc(F)ccc1-c1cccc(NC(=O)c2cccc(Cl)c2)n1 [Compound 39720] too.
result: 8

From: patent US12643875B2
